target: Nuclear receptor subfamily 1 group I member 3 (Homo sapiens) (UniProt Q14994); test: qHTS assay to identify small molecule antagonists of the constitutive androstane receptor (CAR) signaling pathway (AID 1224838); conditions: HepG2-CYP2B6-hCAR luciferase, CITCO-stimulated, 24 h; series mostly up to 92.4 µM;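 further: HepG2 cells stably expressing hCAR with CYP2B6 luciferase reporter stimulated by CITCO; nearly all actives have a fitted effect of over 40% in size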
Sequence (Q14994 whole entry, looked up): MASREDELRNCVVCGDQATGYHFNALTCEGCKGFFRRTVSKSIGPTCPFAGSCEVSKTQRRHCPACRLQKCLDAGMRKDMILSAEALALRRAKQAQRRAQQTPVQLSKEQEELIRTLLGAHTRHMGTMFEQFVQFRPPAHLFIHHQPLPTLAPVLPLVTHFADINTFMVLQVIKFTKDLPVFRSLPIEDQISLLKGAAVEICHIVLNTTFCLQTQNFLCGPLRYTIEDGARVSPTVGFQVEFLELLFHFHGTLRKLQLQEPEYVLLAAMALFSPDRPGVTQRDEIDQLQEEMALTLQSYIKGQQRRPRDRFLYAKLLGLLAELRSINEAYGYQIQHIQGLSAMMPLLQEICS
Results filed as inconclusive are left out. Calls of active or inactive are those of the source. The call rests on the fitted dose curve; in most records, active means well fitted inhibition curve with a large enough effect in the repeat runs; inconclusive means weak or mixed curves, or effect the other way; inactive means no such curve, though single readings can be large or run the other way.
endpoint label: outcome

c1ccc(P(c2ccccc2)c2ccccc2)cc1 ... inactive
CN(C)c1ccc(C(=O)c2ccc(N(C)C)cc2)cc1 ... inactive
Nc1ccc(-c2ccccc2)cc1 ... inactive

----------
assay: qHTS assay to identify small molecule antagonists of the estrogen related receptor (ERR) signaling pathway from Tox21 library (AID 1224848); conditions: ERR reporter cell line, luciferase antagonist mode, 18 h; series mostly up to 92.4 µM; further: nearly all actives have a fitted effect of over 50% in size
Inconclusive results are not listed. Calls of active or inactive are those of the source. The call rests on the fitted dose curve; in most records, active means well fitted inhibition curve with a large enough effect in the repeat runs; inconclusive means weak or mixed curves; inactive means no such curve, though single readings can be large or run the other way.
Your response should consist of one outcome taken from 1 (yes) = active, 0 (no) = inactive

O=Cc1ccco1 ... 0 (no)
NCc1cccnc1 ... 0 (no)
CC(C)(c1cc(Cl)c(O)c(Cl)c1)c1cc(Cl)c(O)c(Cl)c1 ... 0 (no)
CC(C)C(=O)OCC(C)(C)C(OC(=O)C(C)C)C(C)C (stereo not given) ... 0 (no)
Cc1ccc(OP(=O)(Oc2ccc(C)cc2)Oc2ccc(C)cc2)cc1 ... 0 (no)
c1nc[nH]n1 ... 0 (no)
c1ccc(NNc2ccccc2)cc1 ... 0 (no)
Nc1ccc(Cl)c(Cl)c1 ... 1 (yes)
CCN(CC)C(=O)SCc1ccc(Cl)cc1 ... 0 (no)
CC(C)(OOC(C)(C)c1ccccc1)c1ccccc1 ... 0 (no)

Q) Lab log entry: c1ccc(N=Nc2ccccc2)cc1 — outcome as called in the assay?
A) 0 (no)

Q) Lab log entry: O=[N+]([O-])c1cccc2ccccc12 — outcome as called in the assay?
A) 0 (no)

Q) Lab log entry: Oc1ccc(-c2ccccc2)cc1 — outcome as called in the assay?
A) 0 (no)

Q) Lab log entry: CCN(CC)N=O — outcome as called in the assay?
A) 0 (no)

Q) Lab log entry: CCOC(=O)C(C)OC(=O)c1cc(Oc2ccc(C(F)(F)F)cc2Cl)ccc1[N+](=O)[O-] (stereo not given) — outcome as called in the assay?
A) 1 (yes)

----------
test: qHTS assay for identifying genotoxic compounds that show differential cytotoxicity against isogenic chicken DT40 cell lines with known DNA damage response pathways - Rev3 mutant cell line (AID 743014); conditions: chicken DT40 Rev3-/- viability, CellTiter-Glo, 40 h; series mostly up to 68.4 µM; further: nearly all actives have a fitted effect of over 55% in size
Results filed as inconclusive are left out. Active and inactive are the calls of the source. The call rests on the fitted dose curve; in most records, active means well fitted cell-killing curve with a large enough effect in the repeat runs; inconclusive means weak or mixed curves, or effect the other way; inactive means no such curve, though single readings can be large or run the other way.
Your response should consist of one outcome taken from active, inactive

Nc1cccnc1 ... inactive
CC(C)(C)c1ccccc1O ... active
CCN(CC)N=O ... inactive
CC1(C)C(C=C(Cl)Cl)C1C(=O)OC(C#N)c1cccc(Oc2ccccc2)c1 (stereo not given) ... inactive
NC(=S)Nc1ccccc1 ... inactive

Q) Lab log entry: C=CC(=O)OCCO — outcome as called in the assay?
A) inactive

Q) Lab log entry: O=C(NC(=O)c1c(F)cccc1F)Nc1ccc(Cl)cc1 — outcome as called in the assay?
A) inactive

----------
assay: qHTS assay to identify small molecule antagonists of the androgen receptor (AR) signaling pathway using the MDA cell line - cell viability counter screen (AID 743041; further: nearly all actives have a fitted effect of over 45% in size); settings: MDA-kb2 viability, CellTiter-Fluor, 16 h, cells co-treated with R1881 androgen agonist; series mostly up to 70.3 µM
Records with an inconclusive call do not appear. Activity calls are given as the source filed them. Calls follow the shape of the dose curve; as a rule, active = well fitted cell-killing curve with a large enough effect in the repeat runs; inconclusive = weak or mixed curves, or effect the other way; inactive = flat fitted curve, though single readings scatter.
Your response should consist of one outcome taken from active, inactive

Worked examples follow.
OCC(O)CO ... inactive
C[C@]12CCC(=O)C[C@@H]1CC[C@@H]1[C@@H]2CC[C@]2(C)[C@@H](O)CC[C@@H]12 ... inactive
CC(C)(OOC(C)(C)c1ccccc1)c1ccccc1 ... inactive
CCOP(=S)(OCC)O/N=C(\C#N)c1ccccc1 ... inactive
N#CC(Br)Br ... inactive
O=C(Nc1ccc(Br)cc1)c1cc(Br)cc(Br)c1O ... inactive

Q) Lab log entry: Oc1ccc(-c2ccccc2)cc1 — outcome as called in the assay?
A) inactive

Q) Lab log entry: Oc1cc(Cl)ccc1Oc1ccc(Cl)cc1Cl — outcome as called in the assay?
A) inactive
